# System: PRKR
# Construct: gene EIF2AK2
# TEST SETTINGS: concentration: 1 μM, replicates: in singlicate; n = 1;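 also: KINOMEscan kinase panel screen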
QUANTITY: %Inh (%)

1) NCCC(NC(=O)c1cc(Br)c(-c2ccnc3[nH]ccc23)s1)c1ccccc1.O=C(O)C(F)(F)F.O=C(O)C(F)(F)F (stereo not shown) [GSK1307810]; 17
2) O=C(Nc1n[nH]c2cc(-c3cccs3)ccc12)C1CC1 [SB-731284]; 0
3) Nc1ncnc2scc(-c3ccc(NC(=O)Cc4cc(F)ccc4F)cc3)c12.O=C(O)C(F)(F)F [SB-731254-M]; 15
4) CN(c1ccc(F)c(NC(=O)c2cccc(OC(C)(C)C#N)c2Cl)c1)c1ccc2nc(NC(=O)C3CC3)sc2n1; 0

* * *

# Test system: NIK
# Construct: gene MAP3K14
# TEST SETTINGS: concentration: 1 μM, replicates: in singlicate; n = 1
# reported %Inh; entries follow
QUANTITY: %Inh (%)

1) COC(=O)Nc1nc2cc(Oc3ccc(NC(=O)Nc4cccc(SC)c4)cc3)ccc2[nH]1.Cl; 0
2) COc1cccc(CC(=O)N2CCc3cc(-c4cn(C)c5ncnc(N)c45)ccc32)c1; 0
3) CC(C)c1nc(-c2cccc(NS(=O)(=O)c3c(F)cccc3F)c2)c(-c2ccnc(Nc3ccc(N4CCOCC4)nc3)n2)s1.Cl; 95.4
4) Cc1cc(-c2c(-c3ccc(F)cc3)ncn2CCCN2CCOCC2)nc(N)n1; 12
5) CC(C)(C)c1ccc(C(=O)Nc2cn3cc(-n4ccnc4)ccc3n2)cc1; 0
6) CCNC(=O)/C=C/c1n[nH]c2cc(Sc3ccccc3C(=O)NC)ccc12; 0
7) Fc1cc(Cl)ccc1Nc1ccnc2cc(-c3ccc(CN4CCSCC4)o3)ccc12; 28
8) c1ccc(Oc2ccc(Nc3ccnc4cc(-c5ccc(CN6CCCCC6)o5)ccc34)cc2)nc1; 6
9) Cc1ccc(Nc2ccnc(Nc3ccc(C)c(F)c3)n2)cc1O.Cl; 10
10) Cc1cc(-c2ccnc(Nc3cccc(C#N)c3)n2)cc(C)c1O; 62
11) COc1cc(Nc2ccnc3cc(-c4ccncc4)ccc23)cc(OC)c1OC.Cl; 0
12) CCn1c(-c2nonc2N)nc2c(-c3ccccc3)ncc(OCCCN)c21.O=C(O)C(F)(F)F.O=C(O)C(F)(F)F; 30
13) COc1ccc(NC(=O)c2ccoc2)cc1-c1ccc(C(=O)NCC2CC2)cc1; 40
14) O=C(Nc1n[nH]c2nc(-c3ccccc3)ccc12)C1CC1; 18
15) Cc1ccccc1CC(=O)N1CCc2cc(-c3cn(C)c4ncnc(N)c34)ccc21; 21
16) CN1CCN(Cc2ccc(NC(=O)Nc3ccc(N(C)c4ccnc(Nc5ccc(CS(C)(=O)=O)cc5)n4)cc3)cc2)CC1.Cl; 0
17) COc1ccc(C2=C(Nc3cccc(O)c3)C(=O)NC2=O)cc1; 6

* * *

# Test system: PIP5K2C
# Construct: gene PIP4K2C
# TEST SETTINGS: concentration: 1 μM, replicates: in singlicate; n = 1
Returns one of True or False; True when %Inh is >= 40%.

1) CCNC(=O)/C=C/c1n[nH]c2cc(Sc3ccccc3C(=O)NC)ccc12; False
2) c1ccc(Oc2ccc(Nc3ccnc4cc(-c5ccc(CN6CCCCC6)o5)ccc34)cc2)nc1; True
3) Cc1cc(-c2ccnc(Nc3cccc(C#N)c3)n2)cc(C)c1O; True
4) CN(c1ccc(F)c(NC(=O)c2cccc(OC(C)(C)C#N)c2Cl)c1)c1ccc2nc(NC(=O)C3CC3)sc2n1; False
5) CCn1cnc2c(NCc3ccccc3)ncnc21; False
6) COc1ccc(C)c(Nc2ccnc(Nc3ccc(-c4cnc[nH]4)cc3)n2)c1.Cl; True
7) COC(=O)Nc1nc2ccc(Oc3ccc(CC(=O)Nc4cc(C(F)(F)F)ccc4F)cc3)cc2[nH]1; False
8) Cn1cc(-c2ccc3c(c2)CCN3C(=O)Cc2cc(F)cc(C(F)(F)F)c2)c2c(N)ncnc21; False
9) O=C(Nc1n[nH]c2nc(-c3ccccc3)ccc12)C1CC1; False
10) Cc1ccc(-c2ccc3occ(-c4ccc(S(C)=O)cc4)c3c2)nn1 (stereo not shown); True
11) COc1cccc(C2=C(Nc3cccc(O)c3)C(=O)NC2=O)c1; False
12) Cc1ccc(NC(=O)c2ccnc(N3CCCCC3)c2)cc1-c1ccc(C(=O)NCC2CC2)cc1; False
13) Cc1cccc(Nc2nc(N[C@H]3CCCC[C@H]3N)ncc2C(N)=O)c1.Cl; False
14) CC(C)NCC(Cc1ccccc1)NC(=O)c1cc(Br)c(-c2ccnc3[nH]ccc23)s1.Cl.Cl (stereo not shown); False
15) CN(C)c1ncnc2nc[nH]c12; False
16) Cc1cccc(Nc2nc(NCCN)ncc2C(N)=O)c1; False
17) Cl.Cl.NCC(NC(=O)c1cc(-c2cccnc2)c(-c2ccnc3[nH]ccc23)s1)c1ccccc1 (stereo not shown); True
18) CN(C)CCNS(=O)(=O)c1ccc(-c2ccnc3[nH]ccc23)cc1; False
19) CSc1ccc(NC2=C(c3ccc(Cl)cc3)C(=O)NC2=O)cc1; False
20) COc1ccc(NC(=O)c2ccoc2)cc1-c1ccc(C(=O)NCC2CC2)cc1; False
21) CCn1c(-c2nonc2N)nc2c(-c3ccccc3)ncc(OCCCN)c21.O=C(O)C(F)(F)F.O=C(O)C(F)(F)F; False
22) CC(C)(C)c1ccc(C(=O)Nc2cn3cc(-n4ccnc4)ccc3n2)cc1; True
23) Cl.O=C(Nc1ccc(Oc2ccc3[nH]c(NC(=O)c4ccco4)nc3c2)cc1)Nc1cc(C(F)(F)F)ccc1F; False
24) CNc1nccc(-c2ccc3c(N)n[nH]c3c2)n1; False
25) Nc1ncc(-c2ccc3nccc(-c4ccncc4)c3c2)cc1S(=O)(=O)N1CCCCC1; True
26) COc1cc(Nc2nccc(N3CCC(NS(=O)(=O)c4ccc(NC(C)=O)cc4)CC3)n2)cc(OC)c1OC; True
27) NCCC(NC(=O)c1cc(Br)c(-c2ccnc3[nH]ccc23)s1)c1ccccc1.O=C(O)C(F)(F)F.O=C(O)C(F)(F)F (stereo not shown); True
28) CN(c1ccc(NC(=O)N2CCN(CCCN3CCOCC3)CC2)cc1)c1ccnc(Nc2ccc(CS(C)(=O)=O)cc2)n1.Cl; True
29) COC(=O)Nc1nc2ccc(Oc3ccc(NC(=O)Nc4cc(C(F)(F)F)ccc4F)cc3)cc2[nH]1.Cl; False
30) CCOc1nccc(-c2c(-c3ccc(F)cc3)ncn2C2CCNCC2)n1; False
31) Nc1ncc(-c2cn[nH]c2)c2scc(-c3ccc4c(c3)CCN4C(=O)Cc3ccccc3)c12; False
32) COc1cccc(NC(=O)NCCNc2ccnc(Nc3ccc(F)cc3)n2)c1; False
33) CC(C)c1nc(-c2cccc(NS(=O)(=O)c3c(F)cccc3F)c2)c(-c2ccnc(Nc3ccc(N4CCOCC4)nc3)n2)s1.Cl; True

* * *

# reported %Inh; entries follow
# Test system: HIPK1
# TEST SETTINGS: concentration: 1 μM, replicates: in singlicate; n = 1
QUANTITY: %Inh

1) COc1cc(Nc2ccnc3cc(-c4ccncc4)ccc23)cc(OC)c1OC.Cl; 0%
2) Cn1cc(-c2ccc3c(c2)CCN3C(=O)Cc2cc(F)cc(C(F)(F)F)c2)c2c(N)ncnc21; 16%
3) Cc1ccc(O)cc1Nc1ccnc2cc(-c3ccc(CN4CCCCC4)o3)ccc12; 0%
4) O=C(Nc1n[nH]c2nc(-c3ccccc3O)ccc12)C1CC1; 27%
5) CS(=O)(=O)c1cccc(CNc2nc(Nc3ccc4c(c3)CCC(=O)N4)ncc2C(F)(F)F)c1; 31%

* * *

# System: CSF1R
# TEST SETTINGS: concentration: 1 μM, replicates: in singlicate; n = 1
QUANTITY: %Inh (%)

1. CCOc1nccc(-c2c(-c3ccc(F)cc3)ncn2C2CCNCC2)n1; 28
2. N#CC1(c2cccc(C(=O)Nc3cccc(Oc4ccc5nc(NC(=O)C6CC6)sc5n4)c3)c2)CC1; 100
3. Cn1cc(-c2ccc3c(c2)CCN3C(=O)Cc2cc(F)cc(F)c2F)c2c(N)ncnc21; 87
4. Cl.Cl.NCC(NC(=O)c1cc(-c2cccnc2)c(-c2ccnc3[nH]ccc23)s1)c1ccccc1 (stereo not shown); 44
5. Fc1cc(Cl)ccc1Nc1ccnc2cc(-c3ccc(CN4CCSCC4)o3)ccc12; 92.3
6. Cc1cccc(Nc2nc(N[C@H]3CCCC[C@H]3N)ncc2C(N)=O)c1.Cl; 78
7. CC(C)(C)c1ccc(C(=O)Nc2cn3cc(-n4ccnc4)ccc3n2)cc1; 46
8. Fc1cc(Cl)ccc1Nc1ccnc2cc(-c3ccc(CN4CCOCC4)o3)ccc12; 94.2
9. CC(=O)Nc1cn2nc(Oc3cccc(NC(=O)c4cccc(C(F)(F)F)c4)c3)ccc2n1; 100
10. COC(=O)Nc1nc2ccc(Oc3ccc(CC(=O)Nc4cc(C(F)(F)F)ccc4F)cc3)cc2[nH]1; 71
11. COc1cc(Nc2ccnc3cc(-c4ccncc4)ccc23)cc(OC)c1OC.Cl; 49
12. Cc1cc(-c2ccnc(Nc3cccc(C#N)c3)n2)cc(C)c1O; 14
13. NCCC(NC(=O)c1cc(Br)c(-c2ccnc3[nH]ccc23)s1)c1ccccc1.O=C(O)C(F)(F)F.O=C(O)C(F)(F)F (stereo not shown); 18
